Item-by-item account of concentration in single-turnover reaction
biological target: UniProtKB Q16850; assay: Single-turnover rapid-quench kinetics of [3-3H]-dihydrolanosterol oxidation (radio-HPLC); format: biochemical; set-up: made in house; host or cells: Escherichia coli; details: time 0.2 s
Sequence (Q16850 whole entry): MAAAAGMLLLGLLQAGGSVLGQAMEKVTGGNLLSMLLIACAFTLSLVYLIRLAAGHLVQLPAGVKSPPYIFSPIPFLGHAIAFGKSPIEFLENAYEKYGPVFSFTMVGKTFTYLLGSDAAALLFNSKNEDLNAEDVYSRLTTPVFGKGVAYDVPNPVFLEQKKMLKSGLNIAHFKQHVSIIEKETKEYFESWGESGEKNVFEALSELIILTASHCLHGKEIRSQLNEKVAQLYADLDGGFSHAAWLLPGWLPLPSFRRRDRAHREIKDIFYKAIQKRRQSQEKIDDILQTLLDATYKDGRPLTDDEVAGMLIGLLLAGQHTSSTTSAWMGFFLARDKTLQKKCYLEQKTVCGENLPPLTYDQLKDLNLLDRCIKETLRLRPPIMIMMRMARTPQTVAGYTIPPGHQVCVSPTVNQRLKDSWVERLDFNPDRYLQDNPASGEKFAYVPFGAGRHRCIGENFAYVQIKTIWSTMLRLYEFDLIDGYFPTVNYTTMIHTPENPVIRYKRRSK
Quick note: give the figure in µM, leave out the unit.

Look over these answered cases.
>>> measured_value("CC(C)CCCC(C)[C@H]1CC[C@@]2(CO)C3=C(CC[C@]12C)[C@@]1(C)CC[C@H](O)C(C)(C)C1CC3 (stereo partly drawn) [14α-CH2OH dihydrolanosterol, 24,25-dihydro-14α-CH2OH lanosterol]")
2.961
>>> measured_value("CC(C)CCCC(C)[C@H]1CC[C@@]2(C)C3=C(CC[C@]12C)[C@@]1(C)CC[C@H](O)C(C)(C)C1CC3 (stereo partly shown) [dihydrolanosterol, 24,25-dihydrolanosterol]")
1.974
>>> measured_value("CC(C)CCCC(C)[C@H]1CC[C@@]2(C=O)C3=C(CC[C@]12C)[C@@]1(C)CC[C@H](O)C(C)(C)C1CC3 (stereo partly drawn) [14α-CHO dihydrolanosterol, 24,25-dihydro-14α-formyl lanosterol]")
1.6401

With those in mind, consider the next compound.
Any idea what concentration in single-turnover reaction was measured for CC(C)CCC[C@@H](C)[C@H]1CC=C2C3=C(CC[C@@]21C)[C@@]1(C)CC[C@H](O)C(C)(C)[C@@H]1CC3 [dihydro FF-MAS, 24,25-dihydro FF-MAS] ?
0.4249
